Assay name: chemical genetic growth profiling, strain panel (AID 1159580);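 also: tested at 20 µM; growth read once vehicle control cultures reached saturation at 30 °C; 1 = growth at the plate median or of vehicle wells; lower values mean less growth of the strain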
Assay conditions: S. cerevisiae deletion strains, growth OD, locus YLR342W, strain FKS1, hits give low values
In all, about 5,500 compounds went through this assay and about 2,000 (36%) were called active. Another 18% or so got no clear call; they are omitted. The list shows a part of the results.
This section presents compounds with their documented normalized growth values.
Lab note: record the figure alone, no unit after it.

Past entries and their recorded results:
{"columns": ["Compound", "normalized growth"],
 "data": [
  ["NC(=O)C(c1ccccc1)(c1ccccc1)C1CCN(CCc2ccc3c(c2)CCO3)C1 (stereo not given)", 1.02],
  ["COc1ccc2c3c1O[C@H]1C[C@@H](O)C=C[C@@]31CCN(C)C2", 1.01],
  ["CC1CC2C3CCC4=CC(=O)C=C[C@]4(C)[C@@]3(F)[C@@H](O)C[C@]2(C)[C@@]1(O)C(=O)CO (stereo not given in full)", 0.977],
  ["CC(=O)O[C@@H]1C[C@@]2(C)C(CC[C@@H]2C(C)=O)C2CCC3=CC(=O)CC[C@]3(C)C21 (stereo not given in full)", 1.02],
  ["OCCN1C[C@@H](O)[C@@H](O)C(O)C1CO (stereo not given in full)", 0.99]
]}

Look up and state reported normalized growth for CCCCNc1cc(C(=O)O)cc(S(N)(=O)=O)c1Oc1ccccc1 0.976

Quote normalized growth reported for Oc1cc(Cl)ccc1Oc1ccc(Cl)cc1Cl please. 0.0642

Provide one value: measured normalized growth of CC(C)(O)[C@@H]1[C@H]2OC(=O)[C@@H]1[C@]1(O)C[C@H]3O[C@]34C(=O)O[C@H]2[C@]14C 1.01

Respond only with normalized growth recorded for COc1cc(NS(=O)(=O)c2ccc(N)cc2)nc(OC)n1 0.986

Item COc1ccc2c(C)cc(=O)oc2c1 : provide normalized growth 0.989

----------
Here the recorded normalized growth is given for each entry.
Assay name: chemical genetic growth profiling, strain panel (AID 1159580);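 also: tested at 20 µM; growth read once vehicle control cultures reached saturation at 30 °C; 1 = growth at the plate median or of vehicle wells; lower values mean less growth of the strain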
Assay conditions: S. cerevisiae deletion strains, growth OD, locus YER111C, strain swi4, hits give low values
In all, about 5,500 compounds went through this assay and about 2,000 (36%) were called active. Another 18% or so got no clear call; they are omitted. The list shows a part of the results.
The reply should be a number, written without any unit.

{"columns": ["Molecule", "Value"],
 "data": [
  ["CCN(CC)CCCC(C)Nc1ccnc2cc(Cl)ccc12 (stereo unspecified)", 1.04],
  ["COc1cc2c(cc1OC)Cc1cc(OC)c(OC)cc1Cc1cc(OC)c(OC)cc1C2", 1.03],
  ["CCN(CC)CCCC(C)Nc1c2ccc(Cl)cc2nc2ccc(OC)cc12 (stereo unspecified)", 1.02]
]}

Next, consider the following molecule.
Provide one value: measured normalized growth of CCCCCCCCNC(C)C(O)c1ccc(SC(C)C)cc1 (stereo unspecified) 0.0814

----------
Assay name: chemical genetic growth profiling, strain panel (AID 1159580);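 also: tested at 20 µM; growth read once vehicle control cultures reached saturation at 30 °C; 1 = growth at the plate median or of vehicle wells; lower values mean less growth of the strain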
Assay conditions: S. cerevisiae deletion strains, growth OD, locus YGL227W, strain vid30, hits give low values
About 2,000 (36%) of roughly 5,500 compounds were called active. Another 18% or so got no clear call; they are omitted. The list shows a part of the results.
Entries and their normalized growth values follow.

{"columns": ["Compound", "normalized growth"],
 "data": [
  ["CN1CCCN=C1COC(=O)C(O)(c1ccccc1)C1CCCCC1 (stereo not drawn)", "0.993 (inactive)"],
  ["COc1ccc2cc([C@H](C)C(=O)O)ccc2c1", "0.98 (inactive)"],
  ["CCN(CC)CCNC(=O)c1cc(Br)c(N)cc1OC", "0.995 (inactive)"],
  ["CC(NCCc1ccc(O)cc1)C(O)c1ccc(O)cc1 (stereo not drawn)", "0.993 (inactive)"],
  ["CC(C(=O)O)c1ccc(-c2ccccc2)c(F)c1 (stereo not drawn)", "0.991 (inactive)"]
]}

Provide one value: measured normalized growth of COP(=O)(OC)OC=C(Cl)Cl 0.991 (inactive)

Kindly indicate its recorded normalized growth. Item: CC(C(=O)O)c1cccc(C(=O)c2ccccc2)c1 (stereo not drawn) 1 (inactive)
